Assay: Plasma protein binding
Type: in vitro ADME
Details: serum
RESULT TYPE: fraction unbound at 4 h, 500 μM

Query string: Fill in reported fraction unbound at 4 h, 500 μM for this entry: CS(=O)(=O)c1ccc(-c2cnc(N)c(C(=O)Nc3ccc(F)cc3)n2)cc1
Result string: ~0.1

---

Molecular target: ATR (Homo sapiens, UniProt Q13535)
Sequence (Q13535 whole entry): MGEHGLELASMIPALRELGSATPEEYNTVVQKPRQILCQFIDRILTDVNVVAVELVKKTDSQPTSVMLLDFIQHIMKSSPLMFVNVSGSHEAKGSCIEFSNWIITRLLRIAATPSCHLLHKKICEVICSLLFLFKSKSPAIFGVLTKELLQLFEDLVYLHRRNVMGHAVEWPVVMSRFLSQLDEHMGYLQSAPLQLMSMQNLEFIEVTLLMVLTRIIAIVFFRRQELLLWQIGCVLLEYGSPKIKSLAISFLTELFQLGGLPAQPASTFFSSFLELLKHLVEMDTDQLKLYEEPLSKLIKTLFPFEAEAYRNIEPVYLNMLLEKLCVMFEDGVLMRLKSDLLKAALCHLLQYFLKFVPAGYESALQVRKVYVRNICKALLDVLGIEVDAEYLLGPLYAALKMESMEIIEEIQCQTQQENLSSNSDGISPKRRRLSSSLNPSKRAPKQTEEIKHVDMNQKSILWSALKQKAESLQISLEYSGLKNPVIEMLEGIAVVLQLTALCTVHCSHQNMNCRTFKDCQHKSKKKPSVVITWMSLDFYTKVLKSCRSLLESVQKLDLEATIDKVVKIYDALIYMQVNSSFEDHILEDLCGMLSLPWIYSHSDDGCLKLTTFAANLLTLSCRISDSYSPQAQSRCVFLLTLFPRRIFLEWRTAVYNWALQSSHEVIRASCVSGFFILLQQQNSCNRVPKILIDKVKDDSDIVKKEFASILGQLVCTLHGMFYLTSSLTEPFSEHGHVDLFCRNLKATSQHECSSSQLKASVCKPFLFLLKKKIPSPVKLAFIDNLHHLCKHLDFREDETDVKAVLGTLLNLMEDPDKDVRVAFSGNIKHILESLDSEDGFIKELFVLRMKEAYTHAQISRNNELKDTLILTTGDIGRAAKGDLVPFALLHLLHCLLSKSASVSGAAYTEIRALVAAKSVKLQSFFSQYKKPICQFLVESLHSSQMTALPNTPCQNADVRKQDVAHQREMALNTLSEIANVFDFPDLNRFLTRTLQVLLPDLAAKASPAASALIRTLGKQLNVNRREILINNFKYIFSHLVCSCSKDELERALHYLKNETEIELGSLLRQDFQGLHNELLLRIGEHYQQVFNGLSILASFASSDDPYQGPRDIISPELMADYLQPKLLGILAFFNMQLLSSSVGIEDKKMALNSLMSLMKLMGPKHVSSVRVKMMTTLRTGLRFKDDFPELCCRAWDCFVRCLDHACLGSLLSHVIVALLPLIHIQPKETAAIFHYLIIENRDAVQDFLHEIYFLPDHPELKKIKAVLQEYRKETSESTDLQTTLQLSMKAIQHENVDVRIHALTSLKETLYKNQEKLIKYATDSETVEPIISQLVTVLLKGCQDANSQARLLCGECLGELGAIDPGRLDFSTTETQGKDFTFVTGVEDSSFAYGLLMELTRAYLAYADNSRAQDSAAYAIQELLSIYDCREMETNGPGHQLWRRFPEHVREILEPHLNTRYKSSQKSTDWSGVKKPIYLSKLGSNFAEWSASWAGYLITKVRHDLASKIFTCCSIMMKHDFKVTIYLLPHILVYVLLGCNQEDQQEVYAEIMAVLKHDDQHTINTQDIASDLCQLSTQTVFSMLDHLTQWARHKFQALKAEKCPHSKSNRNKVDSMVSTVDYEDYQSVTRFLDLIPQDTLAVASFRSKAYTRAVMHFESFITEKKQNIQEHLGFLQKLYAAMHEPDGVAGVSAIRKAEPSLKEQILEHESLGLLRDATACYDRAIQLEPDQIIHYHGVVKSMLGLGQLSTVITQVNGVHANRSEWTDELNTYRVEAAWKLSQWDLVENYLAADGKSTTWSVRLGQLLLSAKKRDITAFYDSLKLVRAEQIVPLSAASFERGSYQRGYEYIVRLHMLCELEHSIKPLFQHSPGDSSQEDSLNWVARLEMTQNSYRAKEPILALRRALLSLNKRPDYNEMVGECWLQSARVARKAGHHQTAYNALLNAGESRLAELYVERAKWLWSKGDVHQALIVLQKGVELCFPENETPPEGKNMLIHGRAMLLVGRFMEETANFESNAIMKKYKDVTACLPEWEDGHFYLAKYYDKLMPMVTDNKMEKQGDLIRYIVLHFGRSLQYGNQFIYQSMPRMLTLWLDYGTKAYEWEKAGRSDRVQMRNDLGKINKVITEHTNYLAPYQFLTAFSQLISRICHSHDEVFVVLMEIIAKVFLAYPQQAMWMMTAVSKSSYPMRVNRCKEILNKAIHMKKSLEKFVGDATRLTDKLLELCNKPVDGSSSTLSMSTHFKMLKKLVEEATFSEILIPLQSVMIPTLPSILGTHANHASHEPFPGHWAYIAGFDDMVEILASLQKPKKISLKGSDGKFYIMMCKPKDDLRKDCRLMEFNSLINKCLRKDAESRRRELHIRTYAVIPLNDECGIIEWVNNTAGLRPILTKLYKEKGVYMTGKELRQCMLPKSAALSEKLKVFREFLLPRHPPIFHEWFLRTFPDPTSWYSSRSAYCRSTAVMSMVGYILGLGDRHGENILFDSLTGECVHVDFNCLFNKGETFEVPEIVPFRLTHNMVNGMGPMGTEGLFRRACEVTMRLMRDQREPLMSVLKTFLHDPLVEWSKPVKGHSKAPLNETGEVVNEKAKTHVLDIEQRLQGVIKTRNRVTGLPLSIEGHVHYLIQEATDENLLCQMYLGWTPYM
Sequence (Q8WXE1 whole entry partner): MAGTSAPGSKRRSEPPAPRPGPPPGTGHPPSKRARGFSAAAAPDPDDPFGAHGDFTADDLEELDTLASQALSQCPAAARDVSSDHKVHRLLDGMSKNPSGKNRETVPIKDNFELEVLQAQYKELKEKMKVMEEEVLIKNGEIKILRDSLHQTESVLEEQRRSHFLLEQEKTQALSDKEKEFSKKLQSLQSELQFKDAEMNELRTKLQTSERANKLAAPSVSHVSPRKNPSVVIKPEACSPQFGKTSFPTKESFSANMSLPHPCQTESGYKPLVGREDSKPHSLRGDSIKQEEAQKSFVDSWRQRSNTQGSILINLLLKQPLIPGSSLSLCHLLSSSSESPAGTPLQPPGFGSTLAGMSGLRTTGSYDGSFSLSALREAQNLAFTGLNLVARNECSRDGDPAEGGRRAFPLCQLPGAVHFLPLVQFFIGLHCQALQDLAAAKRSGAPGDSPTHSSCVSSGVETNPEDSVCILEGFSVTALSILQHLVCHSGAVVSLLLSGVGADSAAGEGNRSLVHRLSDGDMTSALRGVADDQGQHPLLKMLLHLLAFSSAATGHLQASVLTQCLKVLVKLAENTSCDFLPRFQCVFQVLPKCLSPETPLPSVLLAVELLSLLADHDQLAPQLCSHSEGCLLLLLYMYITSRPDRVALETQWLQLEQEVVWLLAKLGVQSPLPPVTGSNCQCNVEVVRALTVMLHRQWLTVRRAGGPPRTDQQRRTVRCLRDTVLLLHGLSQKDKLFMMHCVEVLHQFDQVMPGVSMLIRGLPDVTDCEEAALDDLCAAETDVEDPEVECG
Test: Competitive displacement assay of [18F]-ATRi by Ve-821 in U251 MG cells
RESULT TYPE: IC50 (nM)
Give a bare numeral; the unit nM is implied.

Query string: Provide only the value of recorded IC50 for CS(=O)(=O)c1ccc(-c2cnc(N)c(C(=O)Nc3ccccc3)n2)cc1
Result string: 38
